Tgt: T1, EcoNrdR (Escherichia coli, UniProt P0A8D0 1-149)
T1 sequence: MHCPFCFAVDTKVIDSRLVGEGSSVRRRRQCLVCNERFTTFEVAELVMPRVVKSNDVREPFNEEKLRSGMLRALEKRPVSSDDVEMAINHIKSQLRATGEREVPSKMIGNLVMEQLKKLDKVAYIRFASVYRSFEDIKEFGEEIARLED
Assay: MST; dATP + ATP; MST, temperature not stated. Lmo: 25 mM Bis-Tris propane pH 6.5, 100 mM KCl, 5 mM MgCl2, 5% glycerol, 1 mM DTT, 0.05% Tween 20, one nucleotide 1 mM or two at 0.5 mM each; Spn: 25 mM HEPES pH 7.2, 250 mM NaCl, 2.5 mM MgCl2, 15% glycerol, 2 mM DTT, 0.1 mg/mL BSA, 0.05% Tween 20, 0.5 mM ATP and/or dATP; Eco: 25 mM Tris pH 8.5, 100 mM NaCl, 7 mM MgCl2, 1 mM DTT, 0.025% Tween 20, 1 mM ATP + 1 mM dATP; …
Test Settings: protein: recombinant; chain copies: 4; label: 5'-Cy5 sense; blunt
Entries and their measured pKd follow.
Please treat pKd as minus the base-10 logarithm of the molar concentration.

{"Binder": "Eco nrdHIEF box 1 duplicated (dsDNA) DNA 1: GTCTCTTGCTATATATTGTGTGGTTGAATCTTTTTTTTGCTATATATTGTGTCTCTG DNA 2: CAGAGACACAATATATAGCAAAAAAAAGATTCAACCACACAATATATAGCAAGAGAC", "Parameter Measured": "pKd", "Quantitative Result": 6.67}

Could you now look at the following binder, please?
For record Synt 14 bp spacer (dsDNA) DNA 1: GCCAAACACAACATCTAGTGGTTGGATAGCTGAGCACACAACATCTAGTGGACCTC DNA 2: GAGGTCCACTAGATGTTGTGTGCTCAGCTATCCAACCACTAGATGTTGTGTTTGGC the listed pKd is 6.77
